Measured pKi values are reported for all entries that follow.
SUBJECT_OF_TEST: human 5HT1Dα receptor (Homo sapiens, UniProt P28221)
Construct: host or cells: LM(tk-) clonal cell line Ltk-8-30-84
Sequence (P28221 whole entry): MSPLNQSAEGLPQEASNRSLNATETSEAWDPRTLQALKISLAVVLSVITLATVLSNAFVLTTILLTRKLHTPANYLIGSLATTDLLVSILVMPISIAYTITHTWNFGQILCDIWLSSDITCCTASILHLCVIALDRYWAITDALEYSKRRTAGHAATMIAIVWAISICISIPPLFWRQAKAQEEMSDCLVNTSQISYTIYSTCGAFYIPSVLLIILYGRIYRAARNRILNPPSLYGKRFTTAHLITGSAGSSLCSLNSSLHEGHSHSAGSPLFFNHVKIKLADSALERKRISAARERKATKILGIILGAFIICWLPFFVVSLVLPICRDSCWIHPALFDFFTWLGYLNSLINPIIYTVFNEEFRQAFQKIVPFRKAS
METHOD_DESCRIPTION: [3H]serotonin competition binding, 5HT1Dα receptor
CONDITION_INFO: Table 2, cloned human receptor; read-out: Serotonin 5HT1Da (pK1)
pKi: −log10 of the molar value.

[
  {
    "MOLECULE": "O=C(NC1CCN(CCc2c[nH]c3ccccc23)CC1)c1ccccc1 [Indoramin, reference compound]",
    "pKi": "< 6.00"
  }
]

Let us examine a further case.
Name the reported pKi value associated with the molecule C=Cc1sc2ccc(Cl)c3c2c1CN(C)CC3 [SKF-104856, reference compound]
< 7.00

====

Catalogue of Ki values
SUBJECT_OF_TEST: human 5HT1E receptor (Homo sapiens, UniProt P28566)
Construct: host or cells: LM(tk-) clonal cell line 5HT1E-7
Sequence (P28566 whole entry): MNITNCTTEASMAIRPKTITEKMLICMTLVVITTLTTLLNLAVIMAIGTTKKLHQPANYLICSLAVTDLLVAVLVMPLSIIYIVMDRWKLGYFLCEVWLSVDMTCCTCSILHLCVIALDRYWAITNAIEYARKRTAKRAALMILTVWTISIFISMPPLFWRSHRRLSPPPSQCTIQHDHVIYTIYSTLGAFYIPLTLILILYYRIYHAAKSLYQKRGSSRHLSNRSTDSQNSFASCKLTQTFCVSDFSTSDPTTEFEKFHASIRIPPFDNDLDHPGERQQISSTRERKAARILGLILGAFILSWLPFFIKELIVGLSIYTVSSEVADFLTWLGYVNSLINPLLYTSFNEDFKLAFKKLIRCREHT
METHOD_DESCRIPTION: [3H]serotonin competition binding, 5HT1E receptor
CONDITION_INFO: Table 2, cloned human receptor; read-out: Serotonin 5HT1E (pK1)

[
  {
    "COMPOUND": "O=C(NC1CCN(CCc2c[nH]c3ccccc23)CC1)c1ccccc1 [Indoramin, reference compound]",
    "SUBJECT_OF_TEST": "human 5HT1E receptor (Homo sapiens, UniProt P28566)",
    "Ki": "> 10 µM"
  }
]

Moving on to the next compound.
Which Ki value is on record for C=Cc1sc2ccc(Cl)c3c2c1CN(C)CC3 [SKF-104856, reference compound] ?
> 1 µM

====

SUBJECT_OF_TEST: human α2B adrenergic receptor (Homo sapiens, UniProt P18089)
Sequence (P18089 whole entry): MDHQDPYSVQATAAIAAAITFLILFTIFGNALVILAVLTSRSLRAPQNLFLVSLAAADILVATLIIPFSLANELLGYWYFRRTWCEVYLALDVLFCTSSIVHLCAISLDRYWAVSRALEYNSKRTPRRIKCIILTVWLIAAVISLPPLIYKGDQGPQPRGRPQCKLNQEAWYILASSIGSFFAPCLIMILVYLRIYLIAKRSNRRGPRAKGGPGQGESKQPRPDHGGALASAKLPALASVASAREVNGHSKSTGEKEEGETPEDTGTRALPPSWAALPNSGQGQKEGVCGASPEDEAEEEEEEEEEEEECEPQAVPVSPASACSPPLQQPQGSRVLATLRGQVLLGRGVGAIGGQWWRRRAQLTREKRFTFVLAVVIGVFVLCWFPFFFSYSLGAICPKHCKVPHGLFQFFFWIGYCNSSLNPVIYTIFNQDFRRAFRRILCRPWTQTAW
METHOD_DESCRIPTION: Competition binding, [3H]rauwolscine, α2B receptor
CONDITION_INFO: Table 2, cloned human receptor
RECORDED_METRIC: Alpha-2 Adrenergic a2b (pK1)
Please state the value as a number alone, without comment.

Hello, I am looking for reported Alpha-2 Adrenergic a2b (pK1) with human α2B adrenergic receptor (Homo sapiens, UniProt P18089) for O=C(CCCN1CCC(NC(=O)c2ccccc2)CC1)c1ccc(Cl)cc1 . Could you help?
6.07

Return Alpha-2 Adrenergic a2b (pK1) measured with human α2B adrenergic receptor (Homo sapiens, UniProt P18089) given this compound: COc1ccccc1N1CCN(CCCNc2c(C)c(=O)n(C)c(=O)n2C)CC1 [5-Methyl-Urapidil, 5-methylurapidil, reference compound]
7.38

human α2B adrenergic receptor (Homo sapiens, UniProt P18089) / Alpha-2 Adrenergic a2b (pK1) / O=C(CCCN1CCC(NC(=O)c2ccccc2)CC1)c1ccccc1 : value?
5.69

Request - read-out Alpha-2 Adrenergic a2b (pK1) | tested on human α2B adrenergic receptor (Homo sapiens, UniProt P18089) | compound COC(=O)C1=C(C)NC(C)=C(C(=O)OCCCN2CCC(c3ccccc3)(c3ccccc3)CC2)C1c1ccc([N+](=O)[O-])cc1.Cl (stereo not shown)
6.12

====

SUBJECT_OF_TEST: human histamine H1 receptor (Homo sapiens, UniProt P35367)
Construct: host or cells: COS-7, transient, DEAE-dextran
Sequence (P35367 whole entry): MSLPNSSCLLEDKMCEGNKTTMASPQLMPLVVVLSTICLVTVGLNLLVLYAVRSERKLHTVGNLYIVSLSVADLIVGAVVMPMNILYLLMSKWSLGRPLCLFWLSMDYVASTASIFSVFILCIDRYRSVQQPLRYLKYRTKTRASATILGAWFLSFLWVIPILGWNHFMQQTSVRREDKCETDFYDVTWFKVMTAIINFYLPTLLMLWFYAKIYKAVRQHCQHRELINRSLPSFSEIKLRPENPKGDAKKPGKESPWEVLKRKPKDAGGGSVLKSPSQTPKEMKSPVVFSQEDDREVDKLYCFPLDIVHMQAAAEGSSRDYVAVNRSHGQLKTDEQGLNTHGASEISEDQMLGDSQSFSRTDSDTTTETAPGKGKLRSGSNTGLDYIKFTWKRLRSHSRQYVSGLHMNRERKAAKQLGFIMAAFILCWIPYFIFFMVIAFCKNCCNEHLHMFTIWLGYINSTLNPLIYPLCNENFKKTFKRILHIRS
METHOD_DESCRIPTION: [3H]mepyramine binding, histamine H1 receptor
CONDITION_INFO: Table 2, cloned human receptor; read-out: Histamine H1 (pK1) (converted)
As shown below, each of these compounds has a reported Ki value.
Answer format: numeric, nM implied, no suffix.

[
  {
    "COMPOUND": "C=Cc1sc2ccc(Cl)c3c2c1CN(C)CC3 [SKF-104856, reference compound]",
    "UNIT_ABBREVIATION": "nM",
    "NUMBER": 2570
  }
]

Which Ki is listed for COc1ccc(CCNCC2CCc3ccccc3C2)cc1 (stereo not shown) ?
1820

Fill blank: measured Ki of the compound O=C(NC1CCN(CCc2c[nH]c3ccccc23)CC1)c1ccccc1 [Indoramin, reference compound] is ____.
42.7

Please give the measured Ki for this compound: COC(=O)C1=C(C)NC(C)=C(C(=O)OCCCN2CCC(c3ccccc3)(c3ccccc3)CC2)C1c1ccc([N+](=O)[O-])cc1.Cl (stereo not shown) [Compound 8, hydrochloride]
214

====

System: human prostate tissue
METHOD_DESCRIPTION: Antagonism of phenylephrine-induced contraction of human prostatic tissue
CONDITION_INFO: pA2, phenylephrine-induced contraction, dose-ratio method
Where a name gives a salt, the structure may show the parent alone.
Label Criterion met when Human Prostate (pA) is at or above 8; otherwise label Criterion not met.

Solved entries:
[
  {
    "MOLECULE": "COc1ccccc1N1CCN(CCCNc2c(C)c(=O)n(C)c(=O)n2C)CC1 [5-Methyl-Urapidil, 5-methylurapidil, reference compound]",
    "SUBJECT_OF_TEST": "human prostate tissue",
    "CLASS": "Criterion met"
  },
  {
    "MOLECULE": "O=C(CCCN1CCC(NC(=O)c2ccccc2)CC1)c1ccc(Cl)cc1 [Compound 7]",
    "SUBJECT_OF_TEST": "human prostate tissue",
    "CLASS": "Criterion not met"
  },
  {
    "MOLECULE": "C=Cc1sc2ccc(Cl)c3c2c1CN(C)CC3 [SKF-104856, reference compound]",
    "SUBJECT_OF_TEST": "human prostate tissue",
    "CLASS": "Criterion not met"
  }
]

Could you tell me if the measured Human Prostate (pA) of COc1cc2nc(N3CCN(C(=O)c4ccco4)CC3)nc(N)c2cc1OC [Prazosin] reaches 8 or more?
Criterion met

State whether the measured Human Prostate (pA) reaches 8, counting equality as reaching it, for COC(=O)C1=C(C)NC(C)=C(C(=O)OCCCN2CCC(c3ccccc3)(c3ccccc3)CC2)C1c1ccc([N+](=O)[O-])cc1.Cl (stereo not shown) [Compound 8]
Criterion not met

Could you please find out whether COc1cc2nc(N3CCN(C(=O)C4CCCO4)CC3)nc(N)c2cc1OC (stereo not shown) [Terazosin, hydrochloride, reference compound] has Human Prostate (pA) that meets 8 or exceeds it?
Criterion not met

====

SUBJECT_OF_TEST: human D2 receptor (Homo sapiens, UniProt P14416)
Construct: host or cells: COS-7, transient, DEAE-dextran
Sequence (P14416 whole entry): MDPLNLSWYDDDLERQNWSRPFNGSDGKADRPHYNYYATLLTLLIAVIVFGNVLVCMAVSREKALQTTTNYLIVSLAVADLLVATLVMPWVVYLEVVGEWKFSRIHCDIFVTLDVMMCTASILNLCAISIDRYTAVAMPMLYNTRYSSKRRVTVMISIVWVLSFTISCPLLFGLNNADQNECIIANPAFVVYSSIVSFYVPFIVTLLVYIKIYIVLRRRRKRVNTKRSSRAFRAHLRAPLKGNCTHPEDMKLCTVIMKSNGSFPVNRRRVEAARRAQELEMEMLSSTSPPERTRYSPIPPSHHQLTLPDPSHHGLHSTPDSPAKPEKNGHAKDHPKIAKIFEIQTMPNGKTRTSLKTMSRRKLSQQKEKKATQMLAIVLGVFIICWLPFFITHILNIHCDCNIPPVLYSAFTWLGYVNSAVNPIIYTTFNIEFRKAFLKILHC
METHOD_DESCRIPTION: [3H]spiperone binding, dopamine D2 receptor
RECORDED_METRIC: Ki

What value of Ki has been recorded for this entry: COC(=O)C1=C(C)NC(C)=C(C(=O)NCCCN2CCC(c3ccccc3)(c3ccccc3)CC2)C1c1ccc([N+](=O)[O-])cc1.Cl.O (stereo not shown) [Compound 2, hydrochloride hydrate]
> 100 nM

====

SUBJECT_OF_TEST: human α1C adrenergic receptor (Homo sapiens)
Construct: The entire coding region of α1C (1401 bp); expressed in transfected cells
Sequence (P35348 whole entry): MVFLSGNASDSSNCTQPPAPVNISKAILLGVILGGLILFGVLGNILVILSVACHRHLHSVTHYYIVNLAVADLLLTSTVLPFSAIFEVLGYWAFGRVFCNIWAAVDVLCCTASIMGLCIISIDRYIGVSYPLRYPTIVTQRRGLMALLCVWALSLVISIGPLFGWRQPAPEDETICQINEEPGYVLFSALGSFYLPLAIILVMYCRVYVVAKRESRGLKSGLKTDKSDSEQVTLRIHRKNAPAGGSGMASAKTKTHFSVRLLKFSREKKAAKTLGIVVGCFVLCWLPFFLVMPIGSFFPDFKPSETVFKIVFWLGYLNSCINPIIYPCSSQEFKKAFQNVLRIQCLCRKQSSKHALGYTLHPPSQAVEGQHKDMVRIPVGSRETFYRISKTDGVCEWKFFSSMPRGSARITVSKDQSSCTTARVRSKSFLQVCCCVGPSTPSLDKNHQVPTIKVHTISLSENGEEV
METHOD_DESCRIPTION: Radioligand binding, [3H]prazosin, cloned human α1C adrenergic receptor
CONDITION_INFO: Table 1, cloned human receptor
The following molecules are shown together with reported Human Alpha-1 Adrenergic (pK1) a1C values.
Number, no unit, nothing else.

Take a look at these entries with their results.
[
  {
    "MOLECULE": "COc1ccccc1N1CCN(CCCNc2c(C)c(=O)n(C)c(=O)n2C)CC1 [5-Methyl-Urapidil, 5-methylurapidil, reference compound]",
    "Human Alpha-1 Adrenergic (pK1) a1C": 8.35
  },
  {
    "MOLECULE": "O=C(CCCN1CCC(NC(=O)c2ccccc2)CC1)c1ccc(Cl)cc1 [Compound 7]",
    "Human Alpha-1 Adrenergic (pK1) a1C": 8.42
  },
  {
    "MOLECULE": "C=Cc1sc2ccc(Cl)c3c2c1CN(C)CC3 [SKF-104856, reference compound]",
    "Human Alpha-1 Adrenergic (pK1) a1C": 7.60
  }
]

Read the next record carefully.
Endpoint output: Human Alpha-1 Adrenergic (pK1) a1C of O=C(CCCN1CCC(NC(=O)c2ccccc2)CC1)c1ccccc1 [Compound 9] . Value?
7.83

// provenance: patent US6602888B2
